Conditions: 328.15 K; 101.33 kPa; Liquid; Concentric cylinders viscometry
ATTRIBUTE MEASURED: viscosity (mPa·s)

INSERT INTO measurements (compound, value) VALUES
  ('CC(=O)O.CCN(C)C [N,N-dimethylethanamine acetate]', 5.611),
  ('CC(=O)[O-].CCn1cc[nH+]c1 [1-ethyl-1H-imidazolium acetate]', 2.492),
  ('CC(=O)[O-].CCCCn1cc[n+](C)c1 [1-butyl-3-methylimidazolium acetate]', 52.84),
  ('CC(=O)[O-].CCCC[N+]1(C)CCCC1 [1-butyl-1-methylpyrrolidinium acetate]', 25.61);

----------
Documented mass density across a set of compounds
Details: 303.15 K; 101.33 kPa; Liquid; Vibrating tube method
ATTRIBUTE MEASURED: mass density (kg/m3)

INSERT INTO measurements (compound, value) VALUES
  ('CC(=O)[O-].CCCC[N+]1(C)CCCC1 [1-butyl-1-methylpyrrolidinium acetate]', 1018.1),
  ('CC(=O)[O-].CCn1cc[nH+]c1 [1-ethyl-1H-imidazolium acetate]', 1029.9),
  ('CC(=O)O.CCN(C)C [N,N-dimethylethanamine acetate]', 1012.2),
  ('CC(=O)[O-].CCCCn1cc[n+](C)c1 [1-butyl-3-methylimidazolium acetate]', 1049.2);
